Please provide measured plant injury at 125 g/ha for the entries that follow.
- Test system: wheat (Triticum aestivum)
- METHOD: Test A postemergence, wheat
- Format: in vivo
- CONDITION PARAMETERS: Triticum aestivum, post-emergence, 240 h, 125 g ai/ha, 0 to 100 scale (0 no effect, 100 complete control), read-out: Plant response rating, Wheat
All answers are understood in %, so give the number only.

Query: // fetch plant injury at 125 g/ha; item: FC(F)(F)CCC1OCCc2cccc(Oc3ncc(Cl)cn3)c21 (centres unmarked) ; system: wheat (Triticum aestivum)
Result: 10

Query: // fetch plant injury at 125 g/ha; item: O=C1c2cccc(Oc3ncc(Cl)cn3)c2C1CCC(F)(F)F (centres unmarked) ; system: wheat (Triticum aestivum)
Result: 0

Query: // fetch plant injury at 125 g/ha; item: FC(F)(F)CCC1OCc2cccc(Oc3ncc(Cl)cn3)c21 (centres unmarked) ; system: wheat (Triticum aestivum)
Result: 50

Query: // fetch plant injury at 125 g/ha; item: O=C1OCC(CCC(F)(F)F)c2c(Oc3ncc(Cl)cn3)cccc21 (centres unmarked) ; system: wheat (Triticum aestivum)
Result: 10

Query: // fetch plant injury at 125 g/ha; item: O=C1OCc2cccc(Oc3ncc(Cl)cn3)c2C1CCCCC(F)(F)F (centres unmarked) ; system: wheat (Triticum aestivum)
Result: 10

# credit: patent US11427549B2
